# measurement_target: PPARγ (Homo sapiens, UniProt P37231)
# Construct: purchased Invitrogen Corporation, Carlsbad, Calif
# Sequence (P37231 238-503 limits assumed): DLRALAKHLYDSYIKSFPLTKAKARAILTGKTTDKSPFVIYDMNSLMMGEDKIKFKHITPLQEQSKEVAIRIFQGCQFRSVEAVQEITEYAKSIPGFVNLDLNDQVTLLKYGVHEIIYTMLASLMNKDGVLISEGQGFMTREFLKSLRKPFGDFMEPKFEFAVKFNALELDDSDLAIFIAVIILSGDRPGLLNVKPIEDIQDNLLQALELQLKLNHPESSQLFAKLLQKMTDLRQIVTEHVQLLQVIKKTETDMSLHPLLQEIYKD
# assay_protocol: Commercial PPARγ binding assay (Invitrogen, PPAR-LBD/Fluormone PPAR Green complex)
# measurement_context: compound at .1 μM; average (SEM) of three experiments in quadruplicate
observation_type: Activation of PPARγ

# annotated cases, reported Activation of PPARγ shown
{"columns": ["molecule", "Activation of PPARγ"],
 "data": [
  ["CCc1ccc(C(=CC(=O)OC)COc2ccc(CC3SC(=O)NC3=O)cc2)nc1 (stereo not drawn)", "226 (17)"],
  ["CCc1ccc(C(=O)COc2ccc(CC3SC(=O)NC3=O)cc2)nc1 (stereo not drawn)", "227 (1)"],
  ["CCc1ccc(CCOc2ccc(CC3(C)SC(=O)NC3=O)cc2)nc1 (stereo not drawn)", "236 (13)"],
  ["CCc1ccc([C@H](O)COc2ccc(CC3(C)SC(=O)NC3=O)cc2)nc1 (stereo partly drawn)", "237 (5)"],
  ["CCc1ccc([C@@H](O)COc2ccc(CC3(C)SC(=O)NC3=O)cc2)nc1 (stereo partly drawn)", "237 (6)"]
]}

Read the next record carefully.
Request: Find Activation of PPARγ for CCc1ccc(C(=O)COc2ccc(CC3(C)SC(=O)NC3=O)cc2)nc1 (stereo not drawn) on PPARγ (Homo sapiens, UniProt P37231) and write it down.
Result: 245 (2)

src = patent US20090143441A1
